test: Terminal half life in rat plasma at 1.0 mg/kg, iv; assay type: ADME, organism-based; design: dose 1 mg/kg, route intravenous; settings: read-out: beta t1/2 (converted)

[
  {
    "SMILES_NOTATION": "C[C@H](Cc1ccc(-c2ccc(C(=O)O)cc2)cc1)NC[C@H](O)c1cccnc1",
    "half-life (h)": 1.91
  },
  {
    "SMILES_NOTATION": "CC(C)Oc1cc(-c2ccc(CCNC[C@H](O)c3cccnc3)cc2)ccc1C(=O)O",
    "half-life (h)": 3.5
  },
  {
    "SMILES_NOTATION": "CC(C)Cc1cc(-c2ccc(CCNC[C@H](O)c3ccc(N)nc3)cc2)ccc1C(=O)O",
    "half-life (h)": 1.9
  }
]

###

assay: AUC (0 to 24 hrs) in dog at 0.32 mg/kg, po; type: ADME, organism-based, Canis lupus familiaris; design: time < 24 hr, dose 0.32 mg/kg, route oral; settings: plasma
Each entry below lists one item and its recorded AUC(0-t) at 24 h value.
MEASURED_QUANTITY: AUC(0-t) at 24 h (ng·h/mL)

[
  {
    "SMILES_NOTATION": "CC(C)Cc1cc(-c2ccc(CCNC[C@H](O)c3ccc(N)nc3)cc2)ccc1C(=O)O",
    "READOUT_NUMBER": 177
  },
  {
    "SMILES_NOTATION": "O=C(O)c1ccc(-c2ccc(CCNC[C@H](O)c3cccnc3)cc2)cc1OC1CCCCC1",
    "READOUT_NUMBER": 58.1
  },
  {
    "SMILES_NOTATION": "CC(C)Oc1cc(-c2ccc(CCNC[C@H](O)c3cccnc3)cc2)ccc1C(=O)O",
    "READOUT_NUMBER": 461
  }
]

###

assay: AUC (0 to 24 hrs) in rat at 0.26 mg/kg, po by cassette assay; type: ADME, organism-based; design: time < 24 hr, dose 0.26 mg/kg, route oral; conditions: plasma
MEASURED_QUANTITY: AUC(0-t) at 24 h (ng·h/mL)

[
  {
    "SMILES_NOTATION": "O=C(O)c1ccc(-c2ccc(CCNC[C@H](O)c3cccnc3)cc2)cc1OC1CCCCC1",
    "MEASURED_QUANTITY": "AUC(0-t) at 24 h",
    "READOUT_NUMBER": 245
  }
]

###

Each entry below lists one item and its recorded fraction unbound value.
experiment: Protein binding in Beagle dog serum; assay type: ADME, cell-free, Canis lupus familiaris; details: read-out: PPB (converted)
MEASURED_QUANTITY: fraction unbound

[
  {
    "SMILES_NOTATION": "CCCOc1cc(-c2ccc(C[C@@H](C)NC[C@H](O)c3cccnc3)cc2)ccc1C(=O)O",
    "READOUT_NUMBER": 0.18
  },
  {
    "SMILES_NOTATION": "O=C(O)c1ccc(-c2ccc(CCNC[C@H](O)c3cccnc3)cc2)cc1OC1CCCCC1",
    "READOUT_NUMBER": 0.1
  },
  {
    "SMILES_NOTATION": "CC(C)Oc1cc(-c2ccc(CCNC[C@H](O)c3cccnc3)cc2)ccc1C(=O)O",
    "READOUT_NUMBER": 0.23
  },
  {
    "SMILES_NOTATION": "CC(C)Oc1cc(-c2ccc(CCN[C@@H](C)[C@H](O)c3ccccc3)cc2)ccc1C(=O)O",
    "READOUT_NUMBER": 0.14
  },
  {
    "SMILES_NOTATION": "CC(C)Oc1cc(-c2ccc(C[C@@H](C)NC[C@H](O)c3ccccc3)cc2)ccc1C(=O)O",
    "READOUT_NUMBER": 0.14
  }
]

###

biological target: Beta-2 adrenergic receptor (Homo sapiens); assay: Agonist activity at human recombinant beta2 adrenergic receptor expressed in CHO cells assessed as cAMP accumulation by enzyme immuno assay
Sequence (P07550 whole entry): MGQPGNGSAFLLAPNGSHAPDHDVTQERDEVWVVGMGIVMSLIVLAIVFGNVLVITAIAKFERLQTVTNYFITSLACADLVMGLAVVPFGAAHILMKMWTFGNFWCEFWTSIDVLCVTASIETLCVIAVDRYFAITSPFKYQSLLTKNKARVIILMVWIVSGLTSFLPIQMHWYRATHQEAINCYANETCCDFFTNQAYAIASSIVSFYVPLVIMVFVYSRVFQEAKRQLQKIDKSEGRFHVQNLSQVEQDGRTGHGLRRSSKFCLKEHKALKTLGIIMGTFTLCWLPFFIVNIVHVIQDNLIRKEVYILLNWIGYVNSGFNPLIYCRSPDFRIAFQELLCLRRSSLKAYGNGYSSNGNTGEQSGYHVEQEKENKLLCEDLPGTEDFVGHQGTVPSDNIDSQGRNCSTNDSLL
Each entry below lists one item and its recorded EC50 value.
MEASURED_QUANTITY: EC50

[
  {
    "SMILES_NOTATION": "CCCOc1cc(-c2ccc(CCN[C@@H](C)[C@H](O)c3ccccc3)cc2)ccc1C(=O)O",
    "TARGET_OR_TEST_SYSTEM": "Beta-2 adrenergic receptor (Homo sapiens)",
    "RESULT": "> 10 µM"
  },
  {
    "SMILES_NOTATION": "O=C(O)c1ccc(-c2ccc(CCNC[C@H](O)c3cccnc3)cc2)cc1OC1CCCCC1",
    "TARGET_OR_TEST_SYSTEM": "Beta-2 adrenergic receptor (Homo sapiens)",
    "RESULT": "> 10 µM"
  },
  {
    "SMILES_NOTATION": "CC(C)Oc1cc(-c2ccc(CCN[C@@H](C)[C@H](O)c3ccccc3)cc2)ccc1C(=O)O",
    "TARGET_OR_TEST_SYSTEM": "Beta-2 adrenergic receptor (Homo sapiens)",
    "RESULT": "> 10 µM"
  }
]

###

assay: AUC (0 to 2 hrs) in Beagle dog at 0.1 mg/kg, po by cassette assay; assay type: ADME, organism-based, Canis lupus familiaris; parameters: time < 2 hr, dose 0.1 mg/kg, route oral; details: plasma
Each entry below lists one item and its recorded AUC(0-t) at 2 h value.

[
  {
    "SMILES_NOTATION": "CC(C)Oc1cc(-c2ccc(C[C@@H](C)NC[C@H](O)c3ccccc3)cc2)ccc1C(=O)O",
    "RESULT_UNIT": "ng·h/mL",
    "AUC(0-t) at 2 h": 106
  },
  {
    "SMILES_NOTATION": "CC(C)COc1cc(-c2ccc(C[C@@H](C)NC[C@H](O)c3ccccc3)cc2)ccc1C(=O)O",
    "RESULT_UNIT": "ng·h/mL",
    "AUC(0-t) at 2 h": 0.2
  },
  {
    "SMILES_NOTATION": "CCOc1cc(-c2ccc(C[C@@H](C)NC[C@H](O)c3ccccc3)cc2)ccc1C(=O)O",
    "RESULT_UNIT": "ng·h/mL",
    "AUC(0-t) at 2 h": 350
  }
]

###

assay: Total clearance in dog at 0.1 mg/kg, iv by cassette assay; type: ADME, organism-based, Canis lupus familiaris; set-up: dose 0.1 mg/kg, route intravenous; conditions: in vivo
Each entry below lists one item and its recorded clearance value.

[
  {
    "SMILES_NOTATION": "CCCOc1cc(-c2ccc(OCCNC[C@H](O)c3cccc(Cl)c3)cc2)ccc1C(=O)O",
    "clearance (mL/min/kg)": 2.9
  },
  {
    "SMILES_NOTATION": "CC(C)Cc1cc(-c2ccc(OCCNC[C@H](O)c3ccc(N)nc3)cc2)ccc1C(=O)O",
    "clearance (mL/min/kg)": 14.2
  }
]

###

test: Terminal half life in rat plasma at 0.26 mg/kg, iv by cassette assay; assay type: ADME, organism-based; design: dose 0.26 mg/kg, route intravenous; settings: read-out: beta t1/2 (converted)
MEASURED_QUANTITY: half-life (h)

[
  {
    "SMILES_NOTATION": "O=C(O)c1ccc(-c2ccc(CCNC[C@H](O)c3cccnc3)cc2)cc1OC1CCCCC1",
    "RESULT_UNIT": "h",
    "READOUT_NUMBER": 3.3
  }
]

###

test: Bioavailability in rat at 0.26 mg/kg, po by cassette assay; assay type: ADME, organism-based; settings: in vivo

[
  {
    "SMILES_NOTATION": "O=C(O)c1ccc(-c2ccc(CCNC[C@H](O)c3cccnc3)cc2)cc1OC1CCCCC1",
    "bioavailability, %": 82.5
  }
]

###

assay: Metabolic stability assessed as intrinsic clearance in human liver microsome in presence of NADPH-generating system; assay type: ADME; details: liver microsomes
MEASURED_QUANTITY: CLint scaled (mL/min/kg)

[
  {
    "SMILES_NOTATION": "CC(C)Cc1cc(-c2ccc(CCNC[C@H](O)c3ccc(N)nc3)cc2)ccc1C(=O)O",
    "COMPARISON_OPERATOR": "=",
    "READOUT_NUMBER": 2.2
  },
  {
    "SMILES_NOTATION": "CC(C)Oc1cc(-c2ccc(C[C@@H](C)NC[C@H](O)c3ccccc3)cc2)ccc1C(=O)O",
    "COMPARISON_OPERATOR": "<",
    "READOUT_NUMBER": 0.1
  }
]

###

experiment: Cmax in dog at 0.1 mg/kg, po; format: ADME, organism-based, Canis lupus familiaris; parameters: dose 0.1 mg/kg, route oral; settings: in vivo

[
  {
    "SMILES_NOTATION": "CCCOc1cc(-c2ccc(C[C@@H](C)NC[C@H](O)c3cccnc3)cc2)ccc1C(=O)O",
    "Cmax, ng/mL": 3
  },
  {
    "SMILES_NOTATION": "C[C@H](Cc1ccc(-c2ccc(C(=O)O)cc2)cc1)NC[C@H](O)c1cccnc1",
    "Cmax, ng/mL": 30.5
  },
  {
    "SMILES_NOTATION": "CC(C)Oc1cc(-c2ccc(CCN[C@@H](C)[C@H](O)c3ccccc3)cc2)ccc1C(=O)O",
    "Cmax, ng/mL": 7.4
  },
  {
    "SMILES_NOTATION": "CC(C)Oc1cc(-c2ccc(C[C@@H](C)NC[C@H](O)c3ccccc3)cc2)ccc1C(=O)O",
    "Cmax, ng/mL": 8.5
  }
]
